- Test summary: Ex vivo biodistribution in Daudi xenograft-bearing mice
- Condition summary: male, NOD.Cg-Rag1tm1Mom Il2rgtm1Wjl/SzJ (NRG), mouse, adrenals, iv, total radioactivity, Adrenals uptake, 1 h p.i., mean
Where a SMILES comes first, the peptide text is derived from it. Side-chain parts run from the residue outwards. [ ]: non-standard residue; d: D form. The star is where a group is joined. DOTA = O=C(O)CN1CCN(CC(=O)O)CCN(CC(=O)*)CCN(CC(=O)O)CC1; 2Nal = N[C@@H](Cc1ccc2ccccc2c1)C(=O)O; dNMeOrn = CN[C@H](CCCN)C(=O)O; 4Amb = NCc1ccc(C(=O)O)cc1
Metric name: tissue uptake at 1 h (%ID/g)

# Compound, Output unit, Quantitative readout
measured = [
    ("CN1C(=O)[C@@H](Cc2ccc(O)cc2)NC(=O)CNC(=O)[C@H](Cc2ccc3ccccc3c2)NC(=O)[C@H](CCCNC(=N)N)NC(=O)[C@H]1CCCNC(=O)c1ccc(CNC(=O)CN2CCN(CC(=O)O)CCN(CC(=O)O)CCN(CC(=O)O)CC2)cc1 [[68Ga]Ga-Pentixafor, metal not drawn] (cyclo([dY][dNMeOrn]([4Amb-DOTA])R[2Nal]G))", "%ID/g", 0.34),
]

----------
- Test summary: Ex vivo biodistribution in Daudi xenograft-bearing mice
- Condition summary: male, NOD.Cg-Rag1tm1Mom Il2rgtm1Wjl/SzJ (NRG), mouse, stomach, iv, total radioactivity, Stomach uptake, 1 h p.i. blocked with LY2510924, mean
Where a SMILES comes first, the peptide text is derived from it. Side-chain parts run from the residue outwards. [ ]: non-standard residue; d: D form. The star is where a group is joined. DOTA = O=C(O)CN1CCN(CC(=O)O)CCN(CC(=O)*)CCN(CC(=O)O)CC1; 2Nal = N[C@@H](Cc1ccc2ccccc2c1)C(=O)O; dNMeOrn = CN[C@H](CCCN)C(=O)O; 4Amb = NCc1ccc(C(=O)O)cc1

# Compound, tissue uptake at 1 h [%ID/g]
data = [
    ("CN1C(=O)[C@@H](Cc2ccc(O)cc2)NC(=O)CNC(=O)[C@H](Cc2ccc3ccccc3c2)NC(=O)[C@H](CCCNC(=N)N)NC(=O)[C@H]1CCCNC(=O)c1ccc(CNC(=O)CN2CCN(CC(=O)O)CCN(CC(=O)O)CCN(CC(=O)O)CC2)cc1 [[68Ga]Ga-Pentixafor, metal not drawn] (cyclo([dY][dNMeOrn]([4Amb-DOTA])R[2Nal]G))", 0.17),
]

----------
- Test summary: Ex vivo biodistribution in Daudi xenograft-bearing mice
- Condition summary: male, NOD.Cg-Rag1tm1Mom Il2rgtm1Wjl/SzJ (NRG), mouse, kidney, iv, total radioactivity, Kidney uptake, 1 h p.i., mean
Where a SMILES comes first, the peptide text is derived from it. Side-chain parts run from the residue outwards. [ ]: non-standard residue; d: D form. The star is where a group is joined. DOTA = O=C(O)CN1CCN(CC(=O)O)CCN(CC(=O)*)CCN(CC(=O)O)CC1; 2Nal = N[C@@H](Cc1ccc2ccccc2c1)C(=O)O; dNMeOrn = CN[C@H](CCCN)C(=O)O; 4Amb = NCc1ccc(C(=O)O)cc1

# Compound, Output unit, tissue uptake at 1 h
data = [
    ("CN1C(=O)[C@@H](Cc2ccc(O)cc2)NC(=O)CNC(=O)[C@H](Cc2ccc3ccccc3c2)NC(=O)[C@H](CCCNC(=N)N)NC(=O)[C@H]1CCCNC(=O)c1ccc(CNC(=O)CN2CCN(CC(=O)O)CCN(CC(=O)O)CCN(CC(=O)O)CC2)cc1 [[68Ga]Ga-Pentixafor, metal not drawn] (cyclo([dY][dNMeOrn]([4Amb-DOTA])R[2Nal]G))", "%ID/g", 2.78),
]

----------
- Test summary: Ex vivo biodistribution in Daudi xenograft-bearing mice
- Condition summary: male, NOD.Cg-Rag1tm1Mom Il2rgtm1Wjl/SzJ (NRG), mouse, muscle, iv, total radioactivity, Muscle uptake, 1 h p.i. blocked with LY2510924, mean
Where a SMILES comes first, the peptide text is derived from it. Side-chain parts run from the residue outwards. [ ]: non-standard residue; d: D form. The star is where a group is joined. DOTA = O=C(O)CN1CCN(CC(=O)O)CCN(CC(=O)*)CCN(CC(=O)O)CC1; 2Nal = N[C@@H](Cc1ccc2ccccc2c1)C(=O)O; dNMeOrn = CN[C@H](CCCN)C(=O)O; 4Amb = NCc1ccc(C(=O)O)cc1

# Compound, Output unit, tissue uptake at 1 h
records = [
    ("CN1C(=O)[C@@H](Cc2ccc(O)cc2)NC(=O)CNC(=O)[C@H](Cc2ccc3ccccc3c2)NC(=O)[C@H](CCCNC(=N)N)NC(=O)[C@H]1CCCNC(=O)c1ccc(CNC(=O)CN2CCN(CC(=O)O)CCN(CC(=O)O)CCN(CC(=O)O)CC2)cc1 [[68Ga]Ga-Pentixafor, metal not drawn] (cyclo([dY][dNMeOrn]([4Amb-DOTA])R[2Nal]G))", "%ID/g", 0.26),
]

----------
- Test summary: Ex vivo biodistribution in Daudi xenograft-bearing mice
- Condition summary: male, NOD.Cg-Rag1tm1Mom Il2rgtm1Wjl/SzJ (NRG), mouse, liver, iv, total radioactivity, Liver uptake, 1 h p.i. blocked with LY2510924, mean
Where a SMILES comes first, the peptide text is derived from it. Side-chain parts run from the residue outwards. [ ]: non-standard residue; d: D form. The star is where a group is joined. DOTA = O=C(O)CN1CCN(CC(=O)O)CCN(CC(=O)*)CCN(CC(=O)O)CC1; 2Nal = N[C@@H](Cc1ccc2ccccc2c1)C(=O)O; dNMeOrn = CN[C@H](CCCN)C(=O)O; 4Amb = NCc1ccc(C(=O)O)cc1

# Compound, tissue uptake at 1 h [%ID/g]
records = [
    ("CN1C(=O)[C@@H](Cc2ccc(O)cc2)NC(=O)CNC(=O)[C@H](Cc2ccc3ccccc3c2)NC(=O)[C@H](CCCNC(=N)N)NC(=O)[C@H]1CCCNC(=O)c1ccc(CNC(=O)CN2CCN(CC(=O)O)CCN(CC(=O)O)CCN(CC(=O)O)CC2)cc1 [[68Ga]Ga-Pentixafor, metal not drawn] (cyclo([dY][dNMeOrn]([4Amb-DOTA])R[2Nal]G))", 1.25),
]

----------
- Test summary: Ex vivo biodistribution in Daudi xenograft-bearing mice
- Condition summary: male, NOD.Cg-Rag1tm1Mom Il2rgtm1Wjl/SzJ (NRG), mouse, fat, iv, total radioactivity, Fat uptake, 1 h p.i., mean
Where a SMILES comes first, the peptide text is derived from it. Side-chain parts run from the residue outwards. [ ]: non-standard residue; d: D form. The star is where a group is joined. DOTA = O=C(O)CN1CCN(CC(=O)O)CCN(CC(=O)*)CCN(CC(=O)O)CC1; 2Nal = N[C@@H](Cc1ccc2ccccc2c1)C(=O)O; dNMeOrn = CN[C@H](CCCN)C(=O)O; 4Amb = NCc1ccc(C(=O)O)cc1

# Compound, tissue uptake at 1 h [%ID/g]
records = [
    ("CN1C(=O)[C@@H](Cc2ccc(O)cc2)NC(=O)CNC(=O)[C@H](Cc2ccc3ccccc3c2)NC(=O)[C@H](CCCNC(=N)N)NC(=O)[C@H]1CCCNC(=O)c1ccc(CNC(=O)CN2CCN(CC(=O)O)CCN(CC(=O)O)CCN(CC(=O)O)CC2)cc1 [[68Ga]Ga-Pentixafor, metal not drawn] (cyclo([dY][dNMeOrn]([4Amb-DOTA])R[2Nal]G))", 0.08),
]

----------
- Test summary: Ex vivo biodistribution in Daudi xenograft-bearing mice
- Condition summary: male, NOD.Cg-Rag1tm1Mom Il2rgtm1Wjl/SzJ (NRG), mouse, liver, iv, total radioactivity, Liver uptake, 1 h p.i., mean
Where a SMILES comes first, the peptide text is derived from it. Side-chain parts run from the residue outwards. [ ]: non-standard residue; d: D form. The star is where a group is joined. DOTA = O=C(O)CN1CCN(CC(=O)O)CCN(CC(=O)*)CCN(CC(=O)O)CC1; 2Nal = N[C@@H](Cc1ccc2ccccc2c1)C(=O)O; dNMeOrn = CN[C@H](CCCN)C(=O)O; 4Amb = NCc1ccc(C(=O)O)cc1

# Molecule, tissue uptake at 1 h, %ID/g
data = [
    ("CN1C(=O)[C@@H](Cc2ccc(O)cc2)NC(=O)CNC(=O)[C@H](Cc2ccc3ccccc3c2)NC(=O)[C@H](CCCNC(=N)N)NC(=O)[C@H]1CCCNC(=O)c1ccc(CNC(=O)CN2CCN(CC(=O)O)CCN(CC(=O)O)CCN(CC(=O)O)CC2)cc1 [[68Ga]Ga-Pentixafor, metal not drawn] (cyclo([dY][dNMeOrn]([4Amb-DOTA])R[2Nal]G))", 1.23),
]

----------
- Test summary: Ex vivo biodistribution in Daudi xenograft-bearing mice
- Condition summary: male, NOD.Cg-Rag1tm1Mom Il2rgtm1Wjl/SzJ (NRG), mouse, kidney, iv, total radioactivity, Kidney uptake, 2 h p.i., mean
Where a SMILES comes first, the peptide text is derived from it. Side-chain parts run from the residue outwards. [ ]: non-standard residue; d: D form. The star is where a group is joined. DOTA = O=C(O)CN1CCN(CC(=O)O)CCN(CC(=O)*)CCN(CC(=O)O)CC1; 2Nal = N[C@@H](Cc1ccc2ccccc2c1)C(=O)O; dNMeOrn = CN[C@H](CCCN)C(=O)O; 4Amb = NCc1ccc(C(=O)O)cc1
Metric name: tissue uptake at 2 h (%ID/g)

# Compound, Metric name, Output unit, Quantitative readout
data = [
    ("CN1C(=O)[C@@H](Cc2ccc(O)cc2)NC(=O)CNC(=O)[C@H](Cc2ccc3ccccc3c2)NC(=O)[C@H](CCCNC(=N)N)NC(=O)[C@H]1CCCNC(=O)c1ccc(CNC(=O)CN2CCN(CC(=O)O)CCN(CC(=O)O)CCN(CC(=O)O)CC2)cc1 [[68Ga]Ga-Pentixafor, metal not drawn] (cyclo([dY][dNMeOrn]([4Amb-DOTA])R[2Nal]G))", "tissue uptake at 2 h", "%ID/g", 1.76),
]
